Each entry below carries its recorded CC50 at 5 days.
METHOD_SUMMARY: Cell viability: resazurin assay in Hep2 cells
Format: cell-based
APPLIED_CONDITIONS: human, 5 days incubation

These recorded examples may help you get a feel for the data.
>>> assay_result("Cc1cc(C(=O)Nc2ccc(C(=O)N3CCc4cc(-c5nc6cccc(C#N)c6[nH]5)sc4-c4ccccc43)cc2)c(N2CC3(CCOCC3)C2)nc1C [Example 25]")
"> 13.9 µM"
>>> assay_result("Cc1cc(C(=O)Nc2ccc(C(=O)N3CCc4cc(-c5nc6cccc(F)c6[nH]5)sc4-c4ccccc43)cc2)c(N2CC3(CCOCC3)C2)nc1C [Example 22]")
"> 14 µM"
>>> assay_result("Cc1cnc(N2CC3(CCOCC3)C2)c(C(=O)Nc2ccc(C(=O)N3CCc4cc(-c5nc6ccccc6[nH]5)sc4-c4ccccc43)cc2)c1 [Example 13]")
"> 14.7 µM"
>>> assay_result("C#Cc1cnc(N2CC3(CCOCC3)C2)c(C(=O)Nc2ccc(C(=O)N3CCc4cc(-c5nc6ccccc6[nH]5)sc4-c4ccccc43)cc2)c1 [Example 5]")
"> 14.5 µM"
>>> assay_result("O=C(Nc1ccc(C(=O)N2CCc3cc(-c4nc5cccc(Cl)c5[nH]4)sc3-c3ccccc32)cc1)c1cccnc1N1CC2(CCOCC2)C1 [Example 9]")
"> 14.3 µM"

Input: // fetch CC50 at 5 days given entry CCc1cnc(N2CC3(CCOCC3)C2)c(C(=O)Nc2ccc(C(=O)N3CCc4cc(-c5nc6ccccc6[nH]5)sc4-c4ccccc43)cc2)c1 [Example 4]
Output: > 14.4 µM

Input: Given the compound O=C(Nc1ccc(C(=O)N2CCc3cc(-c4nc5ccccc5[nH]4)sc3-c3ccccc32)cc1)c1cc(C2CC2)cnc1N1CC2(CCOCC2)C1 [Example 6] , write its reported CC50 at 5 days.
Output: > 14.1 µM

Input: Return value of CC50 at 5 days for input Cc1cnc(N2CC3(CCOCC3)C2)c(C(=O)Nc2ccc(C(=O)N3CCc4cc(-c5nc6ccccc6[nH]5)sc4-c4ccccc43)c(F)c2)c1 [Example 26] , no commentary.
Output: > 14.3 µM

Input: Please give the documented CC50 at 5 days of Cc1ccc(C(=O)Nc2ccc(C(=O)N3CCc4cc(-c5nc6cccc(F)c6[nH]5)sc4-c4ccccc43)cc2)c(N2CC3(CCOCC3)C2)n1 [Example 20]
Output: > 14.3 µM

Input: Using known records, supply CC50 at 5 days for Cc1cnc(N2CC3(CCOCC3)C2)c(C(=O)Nc2ccc(C(=O)N3CCc4cc(-c5nc6cccc(C(F)(F)F)c6[nH]5)sc4-c4ccccc43)cc2)c1 [Example 17]
Output: > 13.4 µM

Input: Let me know recorded CC50 at 5 days for COc1ccc(C(=O)Nc2ccc(C(=O)N3CCc4cc(-c5nc6ccccc6[nH]5)sc4-c4ccccc43)cc2)c(N2CC3(CCOCC3)C2)n1 [Example 21] , thanks.
Output: > 14.4 µM

Input: Using known records, supply CC50 at 5 days for Cc1ccc2nc(-c3cc4c(s3)-c3ccccc3N(C(=O)c3ccc(NC(=O)c5cccnc5N5CC6(CCOCC6)C5)cc3)CC4)[nH]c2c1 [Example 11]
Output: > 14.7 µM

----------
In this section we review reported inhibition at 0.01 µg/mL values for a set of compounds.
Test system: RSV A2 strain
METHOD_SUMMARY: RSV A2-induced CPE in Hep2 cells
Type: cell-based
APPLIED_CONDITIONS: human respiratory syncytial virus, HEp-2; Hep2 cells, at 0.01 μg/mL (footnote 2); read-out: RSV A2 CPE % Inhibition
Express the result in % but write the number alone.

Here is how some compounds turned out for inhibition at 0.01 µg/mL.
>>> assay_result("Cc1cnc(N2CC3(CCOCC3)C2)c(C(=O)Nc2ccc(C(=O)N3CCc4cc(-c5nc6cc(F)cc(F)c6[nH]5)sc4-c4ccccc43)cc2)c1 [Example 19]")
88
>>> assay_result("Cc1ccc(C(=O)Nc2ccc(C(=O)N3CCc4cc(-c5nc6ccccc6[nH]5)sc4-c4ccccc43)cc2)c(N2CC3(CCOCC3)C2)n1 [Example 2]")
90
>>> assay_result("O=C(Nc1ccc(C(=O)N2CCc3cc(-c4nc5ccccc5[nH]4)sc3-c3ccccc32)cc1)c1cc(C2CC2)cnc1N1CC2(CCOCC2)C1 [Example 6]")
100
>>> assay_result("C#Cc1cnc(N2CC3(CCOCC3)C2)c(C(=O)Nc2ccc(C(=O)N3CCc4cc(-c5nc6ccccc6[nH]5)sc4-c4ccccc43)cc2)c1 [Example 5]")
100
>>> assay_result("Cc1cnc(N2CC3(CCOCC3)C2)c(C(=O)Nc2ccc(C(=O)N3CCc4cc(-c5nc6cccc(F)c6[nH]5)sc4-c4ccccc43)cc2)c1 [Example 14]")
93

Input: Identify measured inhibition at 0.01 µg/mL associated with Cc1cc(C(=O)Nc2ccc(C(=O)N3CCc4cc(-c5nc6cccc(F)c6[nH]5)sc4-c4ccccc43)cc2)c(N2CC3(CCOCC3)C2)nc1C [Example 22]
Output: 90

Input: Fill in inhibition at 0.01 µg/mL for record Cc1cc(C(=O)Nc2ccc(C(=O)N3CCc4cc(-c5nc6cccc(C#N)c6[nH]5)sc4-c4ccccc43)cc2)c(N2CC3(CCOCC3)C2)nc1C [Example 25]
Output: 100

Input: Quick one: give measured inhibition at 0.01 µg/mL for CCc1cnc(N2CC3(CCOCC3)C2)c(C(=O)Nc2ccc(C(=O)N3CCc4cc(-c5nc6ccccc6[nH]5)sc4-c4ccccc43)cc2)c1 [Example 4]
Output: 86

Input: Please give measured inhibition at 0.01 µg/mL of the following entry: Cc1cnc(N2CC3(CCOCC3)C2)c(C(=O)Nc2ccc(C(=O)N3CCc4cc(-c5nc6ccccc6[nH]5)sc4-c4ccccc43)c(F)c2)c1 [Example 26]
Output: 100
